The listing below reports EC50 for compounds tested on Peroxisome proliferator-activated receptor gamma (Homo sapiens).
Sequence (P37231 whole entry): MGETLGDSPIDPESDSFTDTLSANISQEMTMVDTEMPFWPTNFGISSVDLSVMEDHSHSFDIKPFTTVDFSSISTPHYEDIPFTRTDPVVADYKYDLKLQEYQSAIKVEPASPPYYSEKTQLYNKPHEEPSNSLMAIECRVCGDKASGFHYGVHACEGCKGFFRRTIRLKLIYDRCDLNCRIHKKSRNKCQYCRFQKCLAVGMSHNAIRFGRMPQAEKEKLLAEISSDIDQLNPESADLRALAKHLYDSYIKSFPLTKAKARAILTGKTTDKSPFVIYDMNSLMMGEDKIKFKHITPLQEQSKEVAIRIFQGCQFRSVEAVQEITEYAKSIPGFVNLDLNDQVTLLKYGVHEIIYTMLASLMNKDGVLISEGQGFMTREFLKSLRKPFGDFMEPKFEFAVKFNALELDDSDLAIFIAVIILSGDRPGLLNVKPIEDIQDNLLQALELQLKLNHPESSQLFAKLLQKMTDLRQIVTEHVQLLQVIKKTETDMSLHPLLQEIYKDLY
Could you give me the number in nM? Just the number is fine.

Tell us which EC50 value is on record for `COC(=O)c1cc2ccc(OCCc3nc(-c4ccc(F)cc4)oc3C)cc2oc1=O`
1620

Tell us which EC50 value is on record for `COC(=O)c1cc2ccc(OCCc3nc(-c4ccc(OC)cc4)oc3C)cc2oc1=O`
1

Tell us which EC50 value is on record for `COC(=O)c1cc2ccc(OCCc3nc(-c4ccc(C)cc4)oc3C)cc2oc1=O`
1

Tell us which EC50 value is on record for COC(=O)C1Cc2ccc(OCCc3nc(-c4ccc(OC)cc4)oc3C)cc2OC1=O (centres undefined)
1

Source of measurements: ChEMBL document CHEMBL1154459
